Target: recombinant human SAE enzyme (Homo sapiens)
Sequence (Q9UBT2 whole entry): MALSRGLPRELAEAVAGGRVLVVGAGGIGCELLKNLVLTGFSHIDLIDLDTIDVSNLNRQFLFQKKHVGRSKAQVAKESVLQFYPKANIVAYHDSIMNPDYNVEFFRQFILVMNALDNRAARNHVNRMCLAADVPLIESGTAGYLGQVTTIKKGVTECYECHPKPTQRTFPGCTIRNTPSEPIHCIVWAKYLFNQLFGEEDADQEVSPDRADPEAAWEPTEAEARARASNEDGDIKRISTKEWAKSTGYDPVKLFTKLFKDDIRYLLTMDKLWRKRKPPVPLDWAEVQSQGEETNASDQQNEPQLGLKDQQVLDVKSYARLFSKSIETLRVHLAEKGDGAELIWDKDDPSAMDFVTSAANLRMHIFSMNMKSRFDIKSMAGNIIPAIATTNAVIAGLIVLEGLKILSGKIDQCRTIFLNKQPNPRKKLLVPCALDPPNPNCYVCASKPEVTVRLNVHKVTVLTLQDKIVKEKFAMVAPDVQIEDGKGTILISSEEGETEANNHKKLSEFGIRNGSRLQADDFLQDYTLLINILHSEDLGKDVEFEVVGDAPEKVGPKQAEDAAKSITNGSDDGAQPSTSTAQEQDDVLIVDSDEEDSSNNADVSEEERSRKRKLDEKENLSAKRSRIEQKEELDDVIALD
Sequence (Q9UBE0 whole entry partner): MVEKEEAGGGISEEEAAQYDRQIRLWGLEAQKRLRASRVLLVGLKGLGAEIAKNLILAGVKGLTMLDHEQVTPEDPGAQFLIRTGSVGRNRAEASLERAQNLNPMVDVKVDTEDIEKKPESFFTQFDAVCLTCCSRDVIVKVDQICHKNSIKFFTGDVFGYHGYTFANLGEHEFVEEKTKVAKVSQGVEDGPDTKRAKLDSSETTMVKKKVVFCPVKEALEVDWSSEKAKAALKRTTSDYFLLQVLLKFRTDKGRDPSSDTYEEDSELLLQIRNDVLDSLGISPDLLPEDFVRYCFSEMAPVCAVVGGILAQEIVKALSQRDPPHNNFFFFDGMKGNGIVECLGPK
Test: SAE HTRF Enzyme Assay
Conditions: class symbols A-C
pIC50: −log10 of the molar value.
Recorded pIC50 by entry
outcome-measure: pIC50

{"columns": ["molecule", "study-target", "outcome-measure", "value-observed"],
 "data": [
  ["Cc1cc(C(=O)c2cncnc2N[C@@H]2C[C@H](COS(N)(=O)=O)[C@@H](O)[C@@H]2F)nn1Cc1cccc(Br)c1 [Compound I-186]", "recombinant human SAE enzyme (Homo sapiens)", "pIC50", "> 8.00"],
  ["NS(=O)(=O)OC[C@H]1C[C@@H](Nc2ncncc2C(=O)c2ccn(Cc3cc(F)c(F)c(F)c3)n2)[C@H](O)[C@@H]1O [Compound I-326]", "recombinant human SAE enzyme (Homo sapiens)", "pIC50", "> 8.00"],
  ["NS(=O)(=O)OC[C@H]1C[C@@H](Nc2ncncc2C(=O)c2cc(Cl)n(Cc3cccc(Cl)c3)c2)[C@@H](F)[C@@H]1O [Compound I-61]", "recombinant human SAE enzyme (Homo sapiens)", "pIC50", "> 8.00"],
  ["CC(c1ccc(Cl)o1)n1ccc(C(=O)c2cncnc2N[C@@H]2C[C@H](COS(N)(=O)=O)[C@@H](O)[C@@H]2F)c1 (single isomer, unassigned) [Compound I-364]", "recombinant human SAE enzyme (Homo sapiens)", "pIC50", "> 8.00"],
  ["NS(=O)(=O)OC[C@H]1C[C@@H](Nc2ncncc2C(=O)c2ccn(C3CCc4ccccc43)n2)[C@H](O)[C@@H]1O (single isomer, unassigned) [Compound I-353]", "recombinant human SAE enzyme (Homo sapiens)", "pIC50", "7.00 to 8.00"],
  ["NS(=O)(=O)OC[C@H]1C[C@@H](Nc2ncncc2C(=O)c2cc(Cl)n(Cc3cccc(Br)c3)c2)[C@@H](F)[C@@H]1O [Compound I-244]", "recombinant human SAE enzyme (Homo sapiens)", "pIC50", "> 8.00"]
]}

====

// pIC50 lookup, one value per entry
Target: recombinant human SAE enzyme (Homo sapiens)
Assay: SAE HTRF Enzyme Assay
Settings: class symbols A-C
pIC50: −log10 of the molar value.

{"columns": ["molecule", "study-target", "pIC50"],
 "data": [
  ["NS(=O)(=O)OC[C@H]1C[C@@H](Nc2ncncc2C(=O)c2ccn(Cc3cncc(Br)c3)n2)C[C@@H]1O [Compound I-29]", "recombinant human SAE enzyme (Homo sapiens)", "7.00 to 8.00"],
  ["NS(=O)(=O)OC[C@H]1C[C@@H](Nc2ncncc2C(=O)c2ccn(Cc3ccc(Cl)cc3F)n2)C[C@@H]1O [Compound I-191]", "recombinant human SAE enzyme (Homo sapiens)", "> 8.00"],
  ["NS(=O)(=O)OC[C@H]1C[C@@H](Nc2ncncc2C(=O)c2ccn(Cc3ccc(OC(F)(F)F)cc3)n2)[C@H](O)[C@@H]1O [Compound I-265]", "recombinant human SAE enzyme (Homo sapiens)", "> 8.00"],
  ["NS(=O)(=O)OC[C@H]1C[C@@H](Nc2ncncc2C(=O)c2ccn(Cc3cc(F)c(F)cc3F)n2)C[C@@H]1O [Compound I-329]", "recombinant human SAE enzyme (Homo sapiens)", "> 8.00"],
  ["NS(=O)(=O)OC[C@H]1C[C@@H](Nc2ncncc2C(=O)c2ccn(Cc3ccc(F)cc3F)n2)C[C@@H]1O [Compound I-62]", "recombinant human SAE enzyme (Homo sapiens)", "> 8.00"],
  ["NS(=O)(=O)OC[C@H]1C[C@@H](Nc2ncncc2C(=O)c2ccn(Cc3ccccc3)n2)C[C@@H]1O [Compound I-158]", "recombinant human SAE enzyme (Homo sapiens)", "> 8.00"],
  ["NS(=O)(=O)OC[C@H]1C[C@@H](Nc2ncncc2C(=O)c2ccn(Cc3cccc(N4CCOCC4)c3)n2)C[C@@H]1O [Compound I-251]", "recombinant human SAE enzyme (Homo sapiens)", "7.00 to 8.00"],
  ["NS(=O)(=O)OC[C@@H]1C[C@@H](Nc2ncncc2C(=O)c2ccn(Cc3cccc(Br)c3)c2)C[C@@H]1O [Compound I-319]", "recombinant human SAE enzyme (Homo sapiens)", "> 8.00"],
  ["NS(=O)(=O)OC[C@H]1C[C@@H](Nc2ncncc2C(=O)c2ccn(CC3=CCOCC3)c2)[C@@H](F)[C@@H]1O [Compound I-5]", "recombinant human SAE enzyme (Homo sapiens)", "7.00 to 8.00"],
  ["NS(=O)(=O)OC[C@H]1C[C@@H](Nc2ncncc2C(=O)c2ccn(Cc3ccccc3OC(F)(F)F)n2)[C@H](O)[C@@H]1O [Compound I-98]", "recombinant human SAE enzyme (Homo sapiens)", "> 8.00"],
  ["NS(=O)(=O)OC[C@H]1C[C@@H](Nc2ncncc2C(=O)c2ccn(Cc3ccc(Cl)c(Br)c3)n2)[C@@H](F)[C@@H]1O [Compound I-127]", "recombinant human SAE enzyme (Homo sapiens)", "> 8.00"],
  ["COc1cc(Cn2ccc(C(=O)c3cncnc3N[C@@H]3C[C@H](COS(N)(=O)=O)[C@@H](O)[C@@H]3F)c2)ccc1F [Compound I-57]", "recombinant human SAE enzyme (Homo sapiens)", "> 8.00"],
  ["NS(=O)(=O)OC[C@H]1C[C@@H](Nc2ccncc2C(=O)c2ccn(Cc3cccc(Cl)c3)n2)[C@H](O)[C@@H]1O [Compound I-81]", "recombinant human SAE enzyme (Homo sapiens)", "> 8.00"],
  ["NS(=O)(=O)OC[C@H]1C[C@@H](Nc2ncncc2C(=O)c2ccn(Cc3ccc(Cl)c(Cl)c3)n2)[C@H](O)[C@@H]1O [Compound I-159]", "recombinant human SAE enzyme (Homo sapiens)", "> 8.00"],
  ["NS(=O)(=O)OC[C@H]1C[C@@H](Nc2ncncc2C(=O)c2ccn(C#Cc3ccccc3)c2)C[C@@H]1O [Compound I-196]", "recombinant human SAE enzyme (Homo sapiens)", "6.00 to 7.00"],
  ["CC(c1cccc(Br)n1)n1ccc(C(=O)c2cncnc2N[C@@H]2C[C@H](COS(N)(=O)=O)[C@@H](O)C2)n1 (single isomer, unassigned) [Compound I-366]", "recombinant human SAE enzyme (Homo sapiens)", "7.00 to 8.00"],
  ["NS(=O)(=O)OC[C@H]1C[C@@H](Nc2ncncc2C(=O)c2ccn(Cc3ccc(Br)o3)c2)[C@@H](F)[C@@H]1O [Compound I-24]", "recombinant human SAE enzyme (Homo sapiens)", "> 8.00"],
  ["CC(c1ccccc1)n1ccc(C(=O)c2cncnc2N[C@@H]2C[C@H](COS(N)(=O)=O)[C@@H](O)[C@H]2O)n1 (single isomer, unassigned) [Compound I-351]", "recombinant human SAE enzyme (Homo sapiens)", "> 8.00"],
  ["NS(=O)(=O)OC[C@H]1C[C@@H](Nc2ncncc2C(=O)c2ccn(Cc3ccc(C(F)(F)F)s3)n2)C[C@@H]1O [Compound I-183]", "recombinant human SAE enzyme (Homo sapiens)", "> 8.00"],
  ["NS(=O)(=O)OC[C@H]1C[C@@H](Nc2ncncc2C(=O)c2ccn(Cc3cccc(-c4ccccc4)c3)n2)[C@H](O)[C@@H]1O [Compound I-278]", "recombinant human SAE enzyme (Homo sapiens)", "> 8.00"],
  ["COC(C)(C)C#CCn1ccc(C(=O)c2cncnc2N[C@@H]2C[C@H](COS(N)(=O)=O)[C@@H](O)C2)n1 [Compound I-151]", "recombinant human SAE enzyme (Homo sapiens)", "7.00 to 8.00"],
  ["NS(=O)(=O)OC[C@H]1C[C@@H](Nc2ncncc2C(=O)c2ccn(Cc3csc4ccc(Cl)cc34)n2)[C@H](O)[C@@H]1O [Compound I-285]", "recombinant human SAE enzyme (Homo sapiens)", "> 8.00"],
  ["NS(=O)(=O)OC[C@H]1C[C@@H](Nc2ncncc2C(=O)c2ccn(Cc3cccc(I)c3)c2)C[C@@H]1O [Compound I-68]", "recombinant human SAE enzyme (Homo sapiens)", "> 8.00"],
  ["NS(=O)(=O)OC[C@H]1C[C@@H](Nc2ncncc2C(=O)c2ccn(Cc3cc4ccccc4o3)n2)C[C@@H]1O [Compound I-17]", "recombinant human SAE enzyme (Homo sapiens)", "> 8.00"],
  ["Cc1cc(C(=O)c2cncnc2N[C@@H]2C[C@H](COS(N)(=O)=O)[C@@H](O)C2)nn1Cc1ccc(Cl)o1 [Compound I-101]", "recombinant human SAE enzyme (Homo sapiens)", "> 8.00"]
]}

====

# inhibition at 0.111 µM listing for each entry below
Target: recombinant human SAE enzyme (Homo sapiens)
Test: SAE HTRF Enzyme Assay
Format: biochemical
Details: compound concentration 0.111 μM; read-out: Percent Inhibition

{"columns": ["compound", "study-target", "scale-unit", "inhibition at 0.111 µM"],
 "data": [
  ["NS(=O)(=O)OC[C@H]1C[C@@H](Nc2ncncc2C(=O)c2ccn(Cc3cccc(Br)c3)n2)[C@@H](F)[C@@H]1O [Compound I-15]", "recombinant human SAE enzyme (Homo sapiens)", "%", 98],
  ["NS(=O)(=O)OC[C@H]1C[C@@H](Nc2ncncc2C(=O)c2ccn(Cc3ccc(Cl)c(Br)c3)c2)[C@@H](F)[C@@H]1O [Compound I-337]", "recombinant human SAE enzyme (Homo sapiens)", "%", 98],
  ["NS(=O)(=O)OC[C@H]1C[C@@H](Nc2ncncc2C(=O)c2ccn(Cc3cccc(I)c3)c2)C[C@@H]1O [Compound I-68]", "recombinant human SAE enzyme (Homo sapiens)", "%", 99],
  ["NS(=O)(=O)OC[C@H]1C[C@@H](Nc2ncncc2C(=O)c2ccn(Cc3ccc(F)c(C4CC4)c3)n2)C[C@@H]1O [Compound I-301]", "recombinant human SAE enzyme (Homo sapiens)", "%", 97],
  ["CC(c1ccc(Cl)o1)n1ccc(C(=O)c2cncnc2N[C@@H]2C[C@H](COS(N)(=O)=O)[C@@H](O)C2)n1 (single isomer, unassigned) [Compound I-354]", "recombinant human SAE enzyme (Homo sapiens)", "%", 79],
  ["NS(=O)(=O)OC[C@H]1C[C@@H](Nc2ncncc2C(=O)c2ccn(S(=O)(=O)c3cccc(Br)c3)n2)[C@H](O)[C@@H]1O [Compound I-1]", "recombinant human SAE enzyme (Homo sapiens)", "%", 98]
]}
